The values you see were collected from PubChem BioAssay.

- assay-procedure: human hepatoma cell viability loss – ATP luminescence, cytotoxicity control for P. falciparum antimalarial project, primary screen (AID 2303);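 also: 0% = DMSO wells and 100% = digitonin-killed cells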
- settings: HepG2 viability, 24-48 h, at 10 µM
Activity calls are given as the source filed them.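 The calls were made as follows: active = inhibition above 50%; inactive = the rest.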
Please state which outcome applies, choosing from active, inactive

Q: Check the results log: what was the call for Cc1cccc2c(C(=O)NC3CCN(Cc4ccccc4)CC3)cc(-c3cccnc3)nc12 ?
Ans: inactive

Q: Check the results log: what was the call for CN(C)c1ccc(CN2CCCCC(NC(=O)c3cc(-c4ccccc4F)cs3)C2)cc1 (centres undefined) ?
Ans: inactive

Q: Check the results log: what was the call for O=c1cc(NCCCNCc2cc(Cl)cc(Cl)c2OCc2ccc(Cl)cc2)[nH]c2ccccc12 ?
Ans: inactive

Q: Check the results log: what was the call for Cc1cc(C)c(C(=O)Nc2ccc3nc(C)cc(N)c3c2)c(C)c1 ?
Ans: inactive

Q: Check the results log: what was the call for CN(Cc1ccc(-c2ccc(C(F)(F)F)cc2)cc1)C(=O)Cn1c(CCc2cccc(F)c2F)nc(=O)c2ccc(N3CCN(CCN4CCCCC4)CC3)nc21 ?
Ans: active

Q: Check the results log: what was the call for O=S(=O)(/C=C/c1ccccc1)N(Cc1ccc(-c2ccc(CNCCc3ccccc3)cc2)cc1)CC1CCCCN1 (centres undefined) ?
Ans: active

Q: Check the results log: what was the call for Nc1cccc(CNCc2ccc(-c3ccc(-c4nc5ccc(F)cc5[nH]4)s3)cc2)c1 ?
Ans: inactive

Q: Check the results log: what was the call for CCc1c(CCNCCCC(C)CCNCCc2ccc(OC)c(OC)c2CC)ccc(OC)c1OC (centres undefined) ?
Ans: active

Q: Check the results log: what was the call for O=C(Nc1cccc(OCCN2CCCC2)c1)Nc1ccc(Cl)c(Cl)c1 ?
Ans: inactive

----------
- assay-procedure: human hepatoma cell viability loss – ATP luminescence, cytotoxicity control for P. falciparum antimalarial project, primary screen (AID 2303);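 also: 0% = DMSO wells and 100% = digitonin-killed cells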
- settings: HepG2 viability, 24-48 h, at 10 µM
Active and inactive are the calls of the source.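 The calls were made as follows: active = inhibition above 50%; inactive = the rest.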
Please state which outcome applies, choosing from T (active), F (inactive)

Q: Check the results log: what was the call for O=S(=O)(c1ccc(OCc2ccc(Cl)cc2)cc1)c1cc2c(c(-c3ccc(F)cc3)c1)CCN(CC1CC1)CC2 ?
Ans: F

Q: Check the results log: what was the call for COc1cc2nc(N3CCC(C(N)=O)CC3)nc(NCc3ccccc3)c2cc1OC ?
Ans: F

Q: Check the results log: what was the call for CCCCC(CC)C(=O)C(NC(=O)[C@H](CSC(c1ccccc1)(c1ccccc1)c1ccccc1)NC(=O)OC(C)(C)C)C(=O)OC (some centres undefined) ?
Ans: F

Q: Check the results log: what was the call for CC(=O)c1c[nH]c2ccc(/C=C/C(=O)NC3CCC(CCN4CCc5ccc(C#N)cc5CC4)CC3)cc12 (centres undefined) ?
Ans: F

Q: Check the results log: what was the call for O=C(COc1ccccc1)Nn1cnc2ccccc21 ?
Ans: F

Q: Check the results log: what was the call for CN1CCN(CCCN(Cc2csc(-c3ccc(CNCc4ccccc4)cc3)n2)S(=O)(=O)c2ccccc2)CC1 ?
Ans: F

Q: Check the results log: what was the call for Cc1cnc(CCNC(=O)c2cc(-c3ccc(Cl)cc3)cs2)[nH]1 ?
Ans: F

Q: Check the results log: what was the call for CC(C)COc1ccc(Cl)cc1Cc1nc(-c2nc3ccc(CN4CCN(C)CC4)cc3[nH]2)co1 ?
Ans: F

Q: Check the results log: what was the call for Cc1ccc(C)c(NC(=O)Nc2ccc(C)c(-c3ccc(C(=O)Nc4ccncc4)cc3)c2)c1 ?
Ans: F

Q: Check the results log: what was the call for CN1CCN(c2ncnc3ccc(NC(=O)Nc4ccc(Cl)c(Cl)c4)cc23)CC1 ?
Ans: F

Q: Check the results log: what was the call for Cc1cc(N[C@@H](Cc2ccccc2)C(=O)NC2CCCC2)nc(Nc2ccccc2)n1 ?
Ans: F

Q: Check the results log: what was the call for Cc1ccccc1C1CCN(C2CCC(NC(=O)/C=C/c3ccc(F)c(F)c3)CC2)CC1 (centres undefined) ?
Ans: F

Q: Check the results log: what was the call for Nc1nc(N)c2c(Oc3cccc4ccccc34)cccc2n1 ?
Ans: F

Q: Check the results log: what was the call for CN1CCc2cc(Br)c(O)cc2C1Cc1ccccc1Cl (centres undefined) ?
Ans: F

Q: Check the results log: what was the call for COc1ccc2nccc(NCC3(O)CCN(CCc4ccc5c(c4)OCCO5)CC3)c2n1 ?
Ans: F

Q: Check the results log: what was the call for Cc1ccc(CN2CCN(c3cc4c(cc3Cl)CCN4C(=O)Cc3ccc(Cl)c(NC(=O)Nc4cccc(C#N)c4)c3)CC2)cc1 ?
Ans: F

Q: Check the results log: what was the call for CN1CCN(c2ccnc3ccc(NC(=O)Nc4ccc(-c5ccncc5)c5ccccc45)cc23)CC1 ?
Ans: T

Q: Check the results log: what was the call for O=C(/C=C/c1ccc(Cl)c(Cl)c1)NCC(CCCN1CCC(c2c[nH]c3ccccc23)CC1)c1ccccc1 (centres undefined) ?
Ans: T

Q: Check the results log: what was the call for O=C(NC1CCN(Cc2ccccc2)CC1)c1cc(C(=O)NC2CCN(Cc3ccccc3)CC2)cc(C(=O)NC2CCN(Cc3ccccc3)CC2)c1 ?
Ans: F

----------
- assay-procedure: antimalarial activity against Dd2 strain (AID 2302);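 also: 0% = DMSO untreated growth and 100% = chloroquine plus artemisinin killed control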
- settings: P. falciparum Dd2 in RBCs, LDH growth readout, 72 h; at 2 µM
The source made the active and inactive calls.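 Rule for the calls: active = growth inhibition above 50% at the single 2 µM test dose, taken to imply half-maximal potency below 2 µM; inactive = the rest.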
Please state which outcome applies, choosing from t (active), f (inactive)

Q: Check the results log: what was the call for O=C(Nc1ccc(OC2CCN(Cc3ccccc3)C2)c(Cl)c1)c1ccsc1 (stereo not given) ?
Ans: t

Q: Check the results log: what was the call for COc1cc2nc(N3CC(C)N(C(=O)Cc4ccc(-c5ccccc5)cc4)C(C)C3)nc(N)c2cc1OC (stereo not given) ?
Ans: f

Q: Check the results log: what was the call for CC(=O)Nc1cccc(C(=O)Nc2cccc(-c3ccc(-c4nc5ccc(C(F)(F)F)cc5[nH]4)s3)c2)c1 ?
Ans: f

Q: Check the results log: what was the call for C=CCNc1cc(-c2ccccn2)nc(-c2ccccn2)n1 ?
Ans: t

Q: Check the results log: what was the call for Cc1cccc2[nH]c(-c3ccc(-c4cccc(C(=O)NCCc5cn(C)cn5)c4)s3)nc12 ?
Ans: f

Q: Check the results log: what was the call for CCC(=Cc1cccc([N+](=O)[O-])c1)C(=O)NCC1CCN(c2nc(N)c3cc(OC)c(OC)cc3n2)CC1 ?
Ans: t

Q: Check the results log: what was the call for O=C(NCc1ccccc1)O[C@@H]1CNCC[C@H]1c1ccc(C(O)Cc2ccccc2)cc1 (stereo not given in full) ?
Ans: f

Q: Check the results log: what was the call for O=C(Nc1cccc(CN2CCN(C(=O)c3cccs3)CC2)c1)c1cccs1 ?
Ans: t

Q: Check the results log: what was the call for CCCCNCc1ccc(-c2nc(CN(Cc3ccc(Cl)c(Cl)c3)S(=O)(=O)c3ccc(NC(C)=O)cc3)cs2)cc1 ?
Ans: f

Q: Check the results log: what was the call for Oc1ccccc1CCNCC1CCc2ccccc2C1 (stereo not given) ?
Ans: t

----------
- assay-procedure: inhibition of 3D7 malaria parasite growth – strain 3D7 (AID 2306);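 also: 0% = DMSO wells and 100% = chloroquine plus artemisinin control wells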
- settings: P. falciparum 3D7 erythrocytic growth, LDH absorbance, 72 h; at 2 µM; active compounds read high
recorded-endpoint: growth inhibition (%)
Kindly answer with a numeric value in %, unit omitted.

Q: Answer with the recorded growth inhibition of CN(Cc1ccc(C#N)cc1)C1CCN(c2cc(NC(=O)c3ccc(F)cc3)ccn2)CC1 only.
Ans: 86

Q: Answer with the recorded growth inhibition of CN1CCC[C@@H](Oc2cc3c(cc2Br)CCN3C(=O)Nc2ccc(-c3ccncc3)c(Cl)c2)C1 only.
Ans: 99

Q: Answer with the recorded growth inhibition of O=C(Nc1ccc(F)c(F)c1)c1ccc(CN2CCCN(Cc3cccc(O)c3)CC2)cc1 only.
Ans: 92

Q: Answer with the recorded growth inhibition of O=C(Nc1cccc(-c2nc3ccccc3[nH]2)c1)c1cccc(NC(=O)c2ccco2)c1 only.
Ans: 91

Q: Answer with the recorded growth inhibition of O=C(Nc1cccc(-c2cc3ccccc3[nH]2)c1)C1CCN(Cc2ccccc2O)CC1 only.
Ans: 95

Q: Answer with the recorded growth inhibition of NC(=O)c1cccc(CNCc2ccc(-c3cccc(-c4nc5ccccc5[nH]4)c3)cc2)c1 only.
Ans: 101

Q: Answer with the recorded growth inhibition of Oc1ccc(CC2CCCN(c3nc(NCCCOc4ccccc4-c4ccccc4)nc(N4CCNCC4)n3)C2)cc1 (centres undefined) only.
Ans: 95

Q: Answer with the recorded growth inhibition of N#Cc1cccc(COC(=O)C2=C(COc3ccccc3Cl)NC(=O)NC2c2c[nH]c3cnccc23)c1 (centres undefined) only.
Ans: 99

Q: Answer with the recorded growth inhibition of COc1ccc(Nc2nccc(N3CCC(NC(=O)C(C)c4ccc(Cl)cc4)CC3)n2)cc1 (centres undefined) only.
Ans: 94

----------
- assay-procedure: human hepatoma cell viability loss – ATP luminescence, cytotoxicity control for P. falciparum antimalarial project, primary screen (AID 2303);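 also: 0% = DMSO wells and 100% = digitonin-killed cells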
- settings: HepG2 viability, 24-48 h, at 10 µM, active compounds read high
Grouping rule (inhibition): one: < 10%; two: ≥ 10% and < 40%; three: ≥ 40%

Q: Which of the defined bands does the recorded inhibition of O=C(Cc1ccccc1)NC(CCN1CCC(O)(c2cccc(C(F)(F)F)c2)CC1)c1ccc(Cl)c(Cl)c1 (stereo unspecified) sit within?
Ans: two

Q: Which of the defined bands does the recorded inhibition of O=C(Nc1cccc(-c2cccc(-c3nc4ccccc4[nH]3)c2)c1)c1ccoc1 sit within?
Ans: two

Q: Which of the defined bands does the recorded inhibition of CC(C)CCCC(C)(C)NC[C@@H](O)[C@H](Cc1ccccc1)NC(=O)c1cc(NC(C)C)cc(N2CCCCS2(=O)=O)c1 sit within?
Ans: one

Q: Which of the defined bands does the recorded inhibition of Oc1ccc(CCNc2nc(N/N=C/C=C/c3ccc(Cl)cc3)nc(N3CCNCC3)n2)cc1 sit within?
Ans: two

Q: Which of the defined bands does the recorded inhibition of CC(C)CCn1c(Sc2ccc(C#N)c([N+](=O)[O-])c2)nnc1-c1ccc(N(C)C)cc1 sit within?
Ans: two

Q: Which of the defined bands does the recorded inhibition of CCc1ccc(NC(=O)c2ccc(CN3CCCN(Cc4ccc(C)s4)CC3)cc2)cc1 sit within?
Ans: three

Q: Which of the defined bands does the recorded inhibition of Cc1ccc(Cn2ncc(N3CCCNCC3)c(Cl)c2=O)cc1NC(=O)Nc1ccc(-c2ccccc2)cc1 sit within?
Ans: three

Q: Which of the defined bands does the recorded inhibition of O=C(Nc1ccc(Cn2ncc(N3CCCNCC3)c(Cl)c2=O)cc1)Nc1ccc(F)cc1[N+](=O)[O-] sit within?
Ans: two

Q: Which of the defined bands does the recorded inhibition of COc1c(C2CCN(CCCCNC(=O)c3cc(-c4ccc(Cl)cc4)sc3C)CC2)ccc2c1CCCC2 sit within?
Ans: three

Q: Which of the defined bands does the recorded inhibition of COc1ccc2nccc([C@@H](O)CN3CCC(NCc4ccc5c(c4)OCCO5)CC3)c2c1 sit within?
Ans: one

Q: Which of the defined bands does the recorded inhibition of CC[C@@]1(O)C(=O)OCc2c1cc1n(c2=O)Cc2c-1nc1cc3c(cc1c2CN1CCN(C)CC1)OCCO3 sit within?
Ans: three

Q: Which of the defined bands does the recorded inhibition of CC(C)(C)C(=O)Nc1ccc(N2CCN(C(c3ccccc3)c3ccccc3)CC2)c(Cl)c1 sit within?
Ans: one

Q: Which of the defined bands does the recorded inhibition of CC(C)(C)C(Cn1ccnc1)NCc1cn[nH]c1-c1ccc(-c2ccccc2)cc1 (stereo unspecified) sit within?
Ans: two

Q: Which of the defined bands does the recorded inhibition of CN1CCC[C@@H](Oc2cc3c(cc2Br)CCN3C(=O)Nc2ccc(-c3ccncc3)c(Cl)c2)C1 sit within?
Ans: two

Q: Which of the defined bands does the recorded inhibition of COC(=O)C1=CNC=C(C(=O)OC)C1c1ccc(Cl)c([N+](=O)[O-])c1 sit within?
Ans: one

Q: Which of the defined bands does the recorded inhibition of CCn1ccc2c(N3CCCS3(=O)=O)cc(C(=O)N[C@@H](Cc3ccccc3)[C@H](O)CNC3CCCCC3)cc21 sit within?
Ans: one

Q: Which of the defined bands does the recorded inhibition of C=C[C@H]1CN(CCCCCCC)CC[C@H]1C[C@@H](Cc1ccnc2ccc(OC)cc12)OC(=O)[C@](OC)(c1ccccc1)C(F)(F)F sit within?
Ans: two

Q: Which of the defined bands does the recorded inhibition of O=C(Nc1ccsc1)Nc1cccc(-c2ccc(-c3nc4ccc(C(F)(F)F)cc4[nH]3)cc2)c1 sit within?
Ans: three

Q: Which of the defined bands does the recorded inhibition of Clc1ncnc2scc(-c3ccc(Br)cc3)c12 sit within?
Ans: one

Q: Which of the defined bands does the recorded inhibition of O=S(=O)(Nc1ccc2nccc(N3CCNCC3)c2c1)c1ccc(-c2ccccc2)cc1 sit within?
Ans: one

Q: Which of the defined bands does the recorded inhibition of CN(C)c1ccc(C=C2SC(=O)NC2=Nc2ccccc2)cc1 sit within?
Ans: three

Q: Which of the defined bands does the recorded inhibition of COCC(C)n1c(SC(C)C(=O)Nc2cc([N+](=O)[O-])ccc2Cl)nc2ccccc2c1=O (stereo unspecified) sit within?
Ans: one

Q: Which of the defined bands does the recorded inhibition of CN1CCN(CCCN(Cc2csc(-c3ccc(CNCc4ccccc4)cc3)n2)C(=O)c2cc(F)cc(F)c2)CC1 sit within?
Ans: three

Q: Which of the defined bands does the recorded inhibition of Cc1ccccc1CN1CCCN(Cc2ccc(C(=O)Nc3ccc(Cl)cc3)cc2)CC1 sit within?
Ans: three

Q: Which of the defined bands does the recorded inhibition of CN1CCC(C(=O)Nc2cccc(-c3cccc(-c4nc5ccc(F)cc5[nH]4)c3)c2)CC1 sit within?
Ans: two

Q: Which of the defined bands does the recorded inhibition of COc1ccc(CN2CCCC(Nc3ccc(F)c(F)c3)C2)c(O)c1 (stereo unspecified) sit within?
Ans: two

Q: Which of the defined bands does the recorded inhibition of Cc1c(CNCCN2CCCCC2)c(C(=O)O)c(C)n1Cc1ccc(Cl)cc1 sit within?
Ans: one

Q: Which of the defined bands does the recorded inhibition of COc1cc2nc(NCc3cccc(CNC(=O)c4ccc(-c5ccc(C(C)=O)cc5)cc4)c3)nc(N)c2cc1OC sit within?
Ans: two

Q: Which of the defined bands does the recorded inhibition of CCCCOP(=O)(COc1ccc(CCN(CC(O)COc2cccc3[nH]c4ccccc4c23)CC(O)COc2cccc3[nH]c4ccccc4c23)cc1)C1CCCCC1 (stereo unspecified) sit within?
Ans: one

Q: Which of the defined bands does the recorded inhibition of N#Cc1ccc2c(c1)CCN(CCC1CCC(NC(=O)/C=C/c3cccc4cc[nH]c34)CC1)CC2 (stereo unspecified) sit within?
Ans: two

Q: Which of the defined bands does the recorded inhibition of N#Cc1ccc2c(c1)CCN(CCC1CCC(NC(=O)c3cc4cccc(Cl)c4[nH]3)CC1)CC2 (stereo unspecified) sit within?
Ans: two

Q: Which of the defined bands does the recorded inhibition of Cc1ccc(NS(=O)(=O)c2ccc(C(C)N3CCC(N4CCCCC4)CC3)cc2)cc1C (stereo unspecified) sit within?
Ans: three

Q: Which of the defined bands does the recorded inhibition of CCN1CCN(c2cc(C)c3cc(NC(=O)c4ccc(N(CC)CC)cc4)ccc3n2)CC1 sit within?
Ans: two
